Each recorded value in this set is attributed to patent US9028845B2.

Test system: PBMCs
Experiment: Human PBMC proliferation assay (3H-thymidine incorporation)
Format: cell-based
Details: mean of Donors 146 and 147, 2 μg/ml, Experiment A
Strand notation (5' to 3'): a small letter for the sugar, then the base; units joined by * are phosphorothioate-linked, units joined directly phosphodiester-linked; [ ] holds rarer units or linkages, { } end groups; capitals alone tell only the bases. d = 2'-deoxy (DNA)
Entry flag: MET if mean of both reaches 20000 cpm; NOT MET if it does not.

Reference set (5 entries):
• 5′-TGACTGTGAACCTTAGAGATGA-3′ (SEQ ID NO: 3) (dT*dG*dA*dC*dT*dG*dT*dG*dA*dA*dC*dC*dT*dT*dA*dG*dA*dG*dA*dT*dG*dA) [Compound P-7, negative control, reference compound] = NOT MET
• 5′-TCGTCGA-3′-HEG-5′-TCGTCGA-3′-HEG-5′-TCGTCGA-3′ [Compound C-21] = MET
• 5′-TCGTCGA-3′-HEG-5′-ACGTTCG-3′-HEG-5′-AGATGAT-3′ [Compound C-8] = MET
• 5′-TCGTCGA-3′ [Compound P-1, reference compound] = NOT MET
• (5′-TCGTCGA-3′)2-glycerol-5′-TCGTCGA-3′ [Compound C-28] = MET

Exam item: Test whether the substance 5′-TGCTGC-3′-HEG-5′-AGCTTGC-3′-HEG-5′-AGATGAT-3′ [Compound M-1, reference compound] records mean of both of 20000 cpm or higher.
Marked response: NOT MET

Exam item: Check the entry 5′-TCGTCGA-3′- C3-5′-ACGTTCG-3′-C3-5′-AGATGAT-3′ [Compound C-9] : does mean of both equal or exceed 20000 cpm?
Marked response: MET
